Assay: In vivo pharmacokinetics in SD rats
Design: species or system SD (Sprague Dwaley) rats
Details: both sexes, Sprague-Dawley, rat, plasma, oral, intragastric vs intravenous, 10 mg/kg (in terms of Compound A), read-out: bioavailability (F %)
valueKind: bioavailability (%)

>>> df
                                   molecule        valuekind  observed
0  Cc1cc(N2CCC[C@@H](N)C2)c2c(n1)n(C)c(=O)n2Cc1ccccc1C#N  bioavailability      96.6
